Values were extracted from paper PMC12655637.

system: HOP-92; assay: NCI-60 screening, one-dose (10 µM) and five-dose, SRB; assay type: cell-based, human; conditions: Homo sapiens; 10 μM; HOP-92, Non-Small-Cell Lung Cancer; read-out: Growth percentage
MEASURED PROPERTY: activity at 10 µM
Be sure to follow the number with its unit.

INSERT INTO results (structure_string, measured_property, result) VALUES
  ('Cc1nc(SCC(=O)N2CCN(c3cc4c(cc3F)c(=O)c(C(=O)O)cn4C3CC3)CC2)sc1C(=O)/C=C/c1ccc(F)cc1', 'activity at 10 µM', '98%'),
  ('Cc1nc(SCC(=O)N2CCN(c3cc4c(cc3F)c(=O)c(C(=O)O)cn4C3CC3)CC2)sc1C(=O)/C=C/c1ccc(Cl)cc1', 'activity at 10 µM', '119%'),
  ('Cc1nc(SCC(=O)N2CCN(c3cc4c(cc3F)c(=O)c(C(=O)O)cn4C3CC3)CC2)sc1C(=O)/C=C/c1cccc(F)c1', 'activity at 10 µM', '91.9%');

Now look at this one.
Requested read-out: activity at 10 µM. Entry: CC(=O)c1sc(SCC(=O)N2CCN(c3cc4c(cc3F)c(=O)c(C(=O)O)cn4C3CC3)CC2)nc1C
105%

====

tested on: LOX IMVI; assay: NCI-60 screening, one-dose (10 µM) and five-dose, SRB; type: cell-based, human; conditions: Homo sapiens, five-dose
Kindly state pIC50 for each of the entries shown.
Answers are plain numbers, as −log10 of the molar value.

INSERT INTO assay_data (structure_string, numeric_value) VALUES
  ('Cc1nc(SCC(=O)N2CCN(c3cc4c(cc3F)c(=O)c(C(=O)O)cn4C3CC3)CC2)sc1C(=O)/C=C/c1cccc(Cl)c1', 5.52);

Now look at this one.
Requested read-out: pIC50. Entry: Cc1nc(SCC(=O)N2CCN(c3cc4c(cc3F)c(=O)c(C(=O)O)cn4C3CC3)CC2)sc1C(=O)/C=C/c1cccc(F)c1
5.39

====

Kindly state Growth percentage for each of the entries shown.
tested on: IGROV1; test: NCI-60 screening, one-dose (10 µM) and five-dose, SRB; type: cell-based, human; details: 10 μM; IGROV1, Ovarian Cancer
Answers are plain numbers, in %.

Below are worked cases with known answers.
INSERT INTO measurements (structure_string, measured_property, unit_of_measurement, numeric_value) VALUES
  ('COc1cccc(/C=C/C(=O)c2sc(SCC(=O)N3CCN(c4cc5c(cc4F)c(=O)c(C(=O)O)cn5C4CC4)CC3)nc2C)c1OC', 'Growth percentage', '%', 101.3),
  ('Cc1nc(SCC(=O)N2CCN(c3cc4c(cc3F)c(=O)c(C(=O)O)cn4C3CC3)CC2)sc1C(=O)/C=C/c1cccc(Cl)c1', 'Growth percentage', '%', 73.9),
  ('Cc1nc(SCC(=O)N2CCN(c3cc4c(cc3F)c(=O)c(C(=O)O)cn4C3CC3)CC2)sc1C(=O)/C=C/c1cccc(F)c1', 'Growth percentage', '%', 44.6);

Requested read-out: Growth percentage. Entry: CC(=O)c1sc(SCC(=O)N2CCN(c3cc4c(cc3F)c(=O)c(C(=O)O)cn4C3CC3)CC2)nc1C
115.9

====

tested on: SK-MEL-5; assay: NCI-60 screening, one-dose (10 µM) and five-dose, SRB; format: cell-based, human; conditions: Homo sapiens; 10 μM; SK-MEL-5, Melanoma; read-out: Growth percentage
MEASURED PROPERTY: activity at 10 µM (%)
Give bare numbers, in %.

Below are worked cases with known answers.
INSERT INTO results (compound, measured_property, numeric_value) VALUES
  ('Cc1nc(SCC(=O)N2CCN(c3cc4c(cc3F)c(=O)c(C(=O)O)cn4C3CC3)CC2)sc1C(=O)/C=C/c1ccc(N(C)C)cc1 [Compound 4i]', 'activity at 10 µM', 89.8),
  ('COc1cccc(/C=C/C(=O)c2sc(SCC(=O)N3CCN(c4cc5c(cc4F)c(=O)c(C(=O)O)cn5C4CC4)CC3)nc2C)c1OC [Compound 4k]', 'activity at 10 µM', 83),
  ('Cc1nc(SCC(=O)N2CCN(c3cc4c(cc3F)c(=O)c(C(=O)O)cn4C3CC3)CC2)sc1C(=O)/C=C/c1ccc(Cl)cc1 [Compound 4c]', 'activity at 10 µM', 100),
  ('Cc1nc(SCC(=O)N2CCN(c3cc4c(cc3F)c(=O)c(C(=O)O)cn4C3CC3)CC2)sc1C(=O)/C=C/c1cccc(Cl)c1 [Compound 4b]', 'activity at 10 µM', 50.3),
  ('Cc1nc(SCC(=O)N2CCN(c3cc4c(cc3F)c(=O)c(C(=O)O)cn4C3CC3)CC2)sc1C(=O)/C=C/c1cccc([N+](=O)[O-])c1 [Compound 4g]', 'activity at 10 µM', 81.7);

Please go through the list and note activity at 10 µM for each compound.
1. Cc1nc(SCC(=O)N2CCN(c3cc4c(cc3F)c(=O)c(C(=O)O)cn4C3CC3)CC2)sc1C(=O)/C=C/c1ccc(F)cc1 [Compound 4e]
2. CC(=O)c1sc(SCC(=O)N2CCN(c3cc4c(cc3F)c(=O)c(C(=O)O)cn4C3CC3)CC2)nc1C [Compound 4a]
3. Cc1nc(SCC(=O)N2CCN(c3cc4c(cc3F)c(=O)c(C(=O)O)cn4C3CC3)CC2)sc1C(=O)/C=C/c1ccc(Br)cc1 [Compound 4f]

99.9
89
101

====

system: SF-539; assay: NCI-60 screening, one-dose (10 µM) and five-dose, SRB; assay type: cell-based, human; details: Homo sapiens, SF-539, 10 μM; SF-539, CNS Cancer; read-out: Growth percentage
Kindly state activity at 10 µM for each of the entries shown.
Answers are plain numbers, in %.

Below are worked cases with known answers.
INSERT INTO measurements (structure_string, numeric_value) VALUES
  ('Cc1nc(SCC(=O)N2CCN(c3cc4c(cc3F)c(=O)c(C(=O)O)cn4C3CC3)CC2)sc1C(=O)/C=C/c1ccc(Cl)cc1', 97.7),
  ('COc1ccc(/C=C/C(=O)c2sc(SCC(=O)N3CCN(c4cc5c(cc4F)c(=O)c(C(=O)O)cn5C4CC4)CC3)nc2C)cc1', 97.5),
  ('Cc1nc(SCC(=O)N2CCN(c3cc4c(cc3F)c(=O)c(C(=O)O)cn4C3CC3)CC2)sc1C(=O)/C=C/c1cccc(Cl)c1', 22.1);

Please go through the list and note activity at 10 µM for each compound.
1. Cc1nc(SCC(=O)N2CCN(c3cc4c(cc3F)c(=O)c(C(=O)O)cn4C3CC3)CC2)sc1C(=O)/C=C/c1ccc(Br)cc1
2. Cc1nc(SCC(=O)N2CCN(c3cc4c(cc3F)c(=O)c(C(=O)O)cn4C3CC3)CC2)sc1C(=O)/C=C/c1cccc([N+](=O)[O-])c1
3. CC(=O)c1sc(SCC(=O)N2CCN(c3cc4c(cc3F)c(=O)c(C(=O)O)cn4C3CC3)CC2)nc1C

1: 89.9; 2: 64.5; 3: 86.4

====

system: SK-MEL-5; assay: NCI-60 screening, one-dose (10 µM) and five-dose, SRB; assay type: cell-based, human; settings: Homo sapiens; five-dose; SK-MEL-5
Kindly state IC50 for each of the entries shown.

INSERT INTO assay_data (structure_string, target_system, result) VALUES
  ('Cc1nc(SCC(=O)N2CCN(c3cc4c(cc3F)c(=O)c(C(=O)O)cn4C3CC3)CC2)sc1C(=O)/C=C/c1cccc(Cl)c1', 'SK-MEL-5', '> 100 µM');

Now look at this one.
Enter reported IC50 observed with SK-MEL-5 for Cc1nc(SCC(=O)N2CCN(c3cc4c(cc3F)c(=O)c(C(=O)O)cn4C3CC3)CC2)sc1C(=O)/C=C/c1cccc(F)c1
> 100 µM

====

system: MOLT-4; test: NCI-60 screening, one-dose (10 µM) and five-dose, SRB; type: cell-based, human; settings: Homo sapiens; five-dose; MOLT-4
MEASURED PROPERTY: IC50
Be sure to follow the number with its unit.

INSERT INTO assay_data (structure_string, result) VALUES
  ('Cc1nc(SCC(=O)N2CCN(c3cc4c(cc3F)c(=O)c(C(=O)O)cn4C3CC3)CC2)sc1C(=O)/C=C/c1cccc(Cl)c1', '21.9 µM');

Now look at this one.
Requested read-out: IC50. Entry: Cc1nc(SCC(=O)N2CCN(c3cc4c(cc3F)c(=O)c(C(=O)O)cn4C3CC3)CC2)sc1C(=O)/C=C/c1cccc(F)c1
4.8 µM

====

Kindly state pIC50 for each of the entries shown.
assay: In vitro cytotoxicity against normal cell line WI 38; assay type: cell-based; settings: human, WI-38 normal cell line; ± SEM
Answers are plain numbers, as −log10 of the molar value.

INSERT INTO assay_data (compound, numeric_value) VALUES
  ('Cc1nc(SCC(=O)N2CCN(c3cc4c(cc3F)c(=O)c(C(=O)O)cn4C3CC3)CC2)sc1C(=O)/C=C/c1cccc(F)c1', 4.39),
  ('COc1cccc2c1C(=O)c1c(O)c3c(c(O)c1C2=O)C[C@@](O)(C(=O)CO)C[C@@H]3O[C@H]1C[C@H](N)[C@H](O)[C@H](C)O1 [Doxorubicin, doxorubicin, reference compound]', 4.70);

Now look at this one.
Requested read-out: pIC50. Entry: Cc1nc(SCC(=O)N2CCN(c3cc4c(cc3F)c(=O)c(C(=O)O)cn4C3CC3)CC2)sc1C(=O)/C=C/c1cccc(Cl)c1
4.57
